Tested on: MDA-MB-435
Assay: NCI tumour cell line growth inhibition, 48 h
Calls of active or inactive are those of the source. Cut-off read from the data, not from the text of the source: active = GI50 up to about 1.1 µM and inactive = higher.
The reader will find reported GI50 values listed item by item below.
MEASURE: GI50

CC(C)(C)OC(=O)NC1CC2(C=C(Br)C(=O)C(Br)=C2)OC1=O (stereo not given) = 7.71 µM (inactive)
COCOc1cc(OC)c(Br)cc1C/C(=N/O)C(=O)OC = 29.6 µM (inactive)
Cc1ccc(N2C(=O)C3c4[nH]c5ccccc5c4C4CCC(C(C)(C)C)CC4C3C2=O)cc1 (stereo not given) = 16.8 µM (inactive)
O=S(=O)(c1ccccc1)n1c(C(O)c2ccncc2)cc2ccccc21 (stereo not given) = 36.3 µM (inactive)
CC(NC(=O)/C(=C/c1ccccc1)NC(=O)c1ccccc1)C(=O)O (stereo not given) = 38.8 µM (inactive)

----------
Test system: HL-60
Assay: NCI tumour cell line growth inhibition, 48 h
Active and inactive are the calls of the source. Rule as the data show it: active = GI50 up to about 1.1 µM and inactive = higher.
MEASURE: GI50

O=C1C=CC(=O)C(CNc2ccc(C(=O)OC34CC5CC(CC(C5)C3)C4)cc2)=C1Br = 1.66 µM (inactive)
Cc1nc2c(-c3ccccc3)[nH]c(C)c2c(=O)o1 = 15.7 µM (inactive)
Cc1cc2c(O)nc(N)nc2nc1C = > 100 µM (inactive)
C=C(C(N)=O)c1ccc([N+](=O)[O-])o1 = 3.16 µM (inactive)
CCc1c(-c2ccc(OC)cc2)c(=O)oc2cc(O)ccc12 = 16.7 µM (inactive)
CCOC(=O)C(NC(=O)c1ccccc1)(Nc1ccc(S(=O)(=O)Nc2nc(C)cc(C)n2)cc1)C(F)(F)F (stereo unspecified) = > 100 µM (inactive)

----------
System: NCI-H23
Test: NCI tumour cell line growth inhibition, 48 h
Calls of active or inactive are those of the source. Rule as the data show it: active = GI50 up to about 1.1 µM and inactive = higher.
MEASURE: GI50

O=C(O)/C=C/c1ccc2c(c1)CC1(Cc3ccccc3C1)C2 = 57 µM (inactive)
O=C1Cc2c(-c3ccccc3)cc(-c3ccc4ccccc4c3)nc2-c2ccccc2N1 = 6.4 µM (inactive)
CC1=NNC(=O)[C@H]2[C@H]1CCC1[C@@H]2CC[C@]2(C)[C@@H](O)CC[C@@H]12 (some centres undefined) = > 100 µM (inactive)
COC(=O)CN1CCS/C1=N/C#N = > 100 µM (inactive)
CC(C)(C)[Si](C)(C)OCCC1CC2(S(=O)(=O)C3=CC=C=C=C3)ON1CC2S(=O)(=O)c1ccccc1 (centres undefined) = > 10 µM (inactive)
CCOC(=O)N(c1ccccc1)c1cc(=O)n2ccccc2n1 = > 100 µM (inactive)
O=C1CCC2=C(CCC2)N1CCc1ccc2c(c1)OCO2 = 38 µM (inactive)
O=c1[nH]c(-n2[nH]c3c(c2=O)CCCC3)nc(O)c1-c1ccccc1 = > 100 µM (inactive)
CCCCCCCCCCCCCCCCCCOC(COP(=O)(O)OCC1OC(n2cc(F)c(=O)[nH]c2=O)CC1O)COP(=O)(O)OCC1OC(n2ccc(N)nc2=O)C(O)C1O (centres undefined) = 7.98 µM (inactive)

----------
System: MOLT-4
Test: NCI tumour cell line growth inhibition, 48 h
Active and inactive are the calls of the source. Rule as the data show it: active = GI50 up to about 1.1 µM and inactive = higher.
Outcome codes: TRUE (active), FALSE (inactive)

CN1C(=O)N/C(=C\c2ccc(S(=O)(=O)N/N=C\C(O)C(O)C(O)CO)cc2)C1=O (centres undefined) = FALSE
CCOC(=O)C(=O)/C(=C/NC(=S)c1ccncc1)C(=O)OCC = FALSE
CN(C)CCC[N+]1=Nc2cccc3cccc(c23)N1 = FALSE
Cc1ccc(C(=O)N/N=C(\N=N\c2ccc(C(=O)O)cc2)c2ccc(N(CCC#N)CCC#N)cc2C)cc1 = FALSE
CCCCCCOc1ccc(C(=O)NO)cc1 = TRUE
O=C(O)c1ccccc1CN1CCCC(C(=O)O)C1 (centres undefined) = FALSE
COC(=O)C1=C(C(=O)OC)C23CC1C1C(C(=O)OC)=C(C(=O)OC)C12C1C=CC3C2C(=O)OC(=O)C21 (centres undefined) = FALSE
CC(=O)C1=C(O)C2C3c4c[nH]c5cccc(c45)CC3C(C)(C)N2C1=O (centres undefined) = FALSE
C=C1C[C@@H]2O[C@H]3[C@H]4[C@@H](C[C@@H](C)[C@@H](OC(C)=O)[C@H]42)[C@@H](C)CO[C@@]3(C)[C@H](OC(C)=O)C[C@H]1O = FALSE
